Quick reference: TGI of the listed items.
Tested on: NCI-H522 lung
method-notes: NCI tumour cell line growth inhibition, 48 h

{"columns": ["molecule", "TGI"],
 "data": [
  ["CN(Cc1cnc2nc(N)nc(N)c2n1)c1ccc(C(=O)NC(CCC(=O)NCCC(P(=O)(O)O)P(=O)(O)O)C(=O)O)cc1 (stereo not drawn)", "> 100 µM"],
  ["NS(=O)(=O)c1ccc(N=Nc2nc3[nH]c(=O)[nH]c(=O)c3[nH]2)cc1", "> 100 µM"],
  ["Cc1cc(C)n2nc3nc(N)c(C#N)c(-c4ccccc4)c3c2n1", "> 100 µM"]
]}

###

Test system: NCI-H522 lung
method-notes: NCI tumour cell line growth inhibition, 48 h

{"columns": ["molecule", "TGI"],
 "data": [
  ["Cc1cc(CC(O)c2ccc(Cl)c(Cl)c2)nc(=O)[nH]1 (stereo not given)", "69.9 µM"],
  ["C=C(CCC/C(C)=C/C=C/[C@]1(C)CCCc2ccoc21)CC(=O)O", "> 100 µM"],
  ["COc1cc2nc(-c3ccc(Cl)cc3)cc(OCCCN3CCCCC3)c2cc1OC", "> 100 µM"],
  ["COC(=O)c1cc2c3c(ccc2[nH]1)N(C(=O)c1cc2cc(OC)c(OC)c(OC)c2[nH]1)CC3CCl (stereo not given)", "> 100 µM"],
  ["COc1ccc(-n2cc(-c3cc(OC)c(OC)c(OC)c3)c(C(=O)C(F)(F)F)c2C)cc1", "> 100 µM"],
  ["S=C(Nc1ccccc1)N(/N=C/C=C/c1ccccc1)c1nnc(-c2ccccc2)c(-c2ccccc2)n1", "> 100 µM"],
  ["O=C(CCn1[nH]c(=O)c(Cl)c(Cl)c1=O)NO", "> 100 µM"],
  ["C=C(CNCc1ccccc1)c1ccc(C(=O)Nc2ccccc2N)cc1", "6.01 µM"],
  ["N#CC(=C1C=CC(=NO)C=C1)c1ccccc1", "4.68 µM"],
  ["Cc1ccc(C)c(C2=C(c3cn(C)c4ccccc34)C(=O)NC2=O)c1", "> 25 µM"]
]}

###

Tested on: SF-295 CNS
method-notes: NCI tumour cell line growth inhibition, 48 h
measured-attribute: TGI

{"columns": ["compound", "measured-attribute", "endpoint-result"],
 "data": [
  ["CC(=O)Nc1ccc(N2C(=O)/C(=C\\c3cccc(Oc4ccccc4)c3)S(=O)(=O)C2c2ccccc2)cc1 (stereo not drawn)", "TGI", "> 100 µM"],
  ["CN(C)c1nc2ccccc2[nH]1", "TGI", "> 100 µM"],
  ["NC(=Nc1c([N+](=O)[O-])cnc2ccccc12)N1CCOCC1", "TGI", "> 100 µM"]
]}

###

# TGI per entry
System: SF-539 CNS
method-notes: NCI tumour cell line growth inhibition, 48 h

{"columns": ["compound", "assay-system", "TGI"],
 "data": [
  ["Oc1c(C2=NNC(c3ccc(Cl)cc3Cl)C2)ccc2ccccc12 (stereo unspecified)", "SF-539 CNS", "> 100 µM"],
  ["C=C(CCC/C(C)=C/C=C/[C@]1(C)CCCc2ccoc21)CC(=O)O", "SF-539 CNS", "> 100 µM"],
  ["CC1=NNC(=O)C2CCC(=O)N12 (stereo unspecified)", "SF-539 CNS", "> 100 µM"],
  ["OCC1OC(c2cccc3cc(O)c(O)cc23)CC1O (stereo unspecified)", "SF-539 CNS", "> 100 µM"],
  ["CN(C)/C=N/c1nc2c(ncn2C2OC(CO)C(O)C2O)c(=O)[nH]1 (stereo unspecified)", "SF-539 CNS", "> 100 µM"],
  ["CCC(C)n1ncn(-c2ccc(N3CCN(c4ccc(OCC5COC(Cn6cncn6)(c6ccc(Cl)cc6Cl)O5)cc4)CC3)cc2)c1=O (stereo unspecified)", "SF-539 CNS", "> 100 µM"],
  ["COC(=O)CCC1=CCC2(SC)C(=O)Nc3cccc1c32 (stereo unspecified)", "SF-539 CNS", "> 100 µM"],
  ["CC(C)(Br)C(Br)CCC1(C2CO2)CO1 (stereo unspecified)", "SF-539 CNS", "> 5 µM"],
  ["O=C1NC(=O)C(c2cnc3ccccn23)=C1c1cn2c3c(cc(F)cc13)CN(C(=O)N1CCCCC1)CC2", "SF-539 CNS", "24.4 µM"],
  ["COc1ccc(C2COc3cc(OC(C)=O)c(OC(C)=O)cc3C2)cc1 (stereo unspecified)", "SF-539 CNS", "37.8 µM"],
  ["COc1ccc(C(C)=O)cc1N1C(=O)C2C(C1=O)C1(c3ccccc3)C(=O)C2(c2ccccc2)C(c2ccc(C)cc2)=C1c1ccc(C)cc1 (stereo unspecified)", "SF-539 CNS", "> 100 µM"],
  ["CCCCC(C(=O)C(=O)NC1C2CC3CC(C2)CC1C3)C(=O)C(C)C (stereo unspecified)", "SF-539 CNS", "> 100 µM"],
  ["CN1CCN(CCOc2ccc(-c3cnc4c(-c5ccccc5F)cnn4c3)cc2)CC1", "SF-539 CNS", "2.96 µM"],
  ["O=C(O)C1C2C=CC(O2)C1C(=O)NCc1ccccn1 (stereo unspecified)", "SF-539 CNS", "> 100 µM"],
  ["[N-]=[N+]=NC12CC3C4CC5CC3C(C1)C(C5)C4C2", "SF-539 CNS", "> 100 µM"],
  ["NC(=O)NC1C(c2ccccc2)=C1c1ccccc1", "SF-539 CNS", "31.2 µM"]
]}

###

Test system: HCT-116 colon
method-notes: NCI tumour cell line growth inhibition, 48 h
Measured TGI, listed per entry for reference.

{"columns": ["molecule", "assay-system", "TGI"],
 "data": [
  ["OCC1OC(c2cccc3cc(O)c(O)cc23)CC1O (centres undefined)", "HCT-116 colon", "> 100 µM"],
  ["C=C(CCC/C(C)=C/C=C/[C@]1(C)CCCc2ccoc21)CC(=O)O", "HCT-116 colon", "> 100 µM"],
  ["CS(=O)(=O)O[C@H]1CN2C[C@@H](O)[C@@H](O)[C@H]2[C@H]1CO", "HCT-116 colon", "> 100 µM"],
  ["C1C2CC3CC1CC(Nc1nc(NC45CC6CC(CC(C6)C4)C5)nc(NC45CC6CC(CC(C6)C4)C5)n1)(C2)C3", "HCT-116 colon", "> 100 µM"],
  ["COc1cc(OC)c(-c2ccc(OCc3ccccc3)c3c(OC)cc(C)cc23)c2c1C(C)=N[C@H](C)C2", "HCT-116 colon", "3.97 µM"],
  ["N#CC(=C1C=CC(=NO)C=C1)c1ccccc1", "HCT-116 colon", "0.794 µM"],
  ["CN(CC(=O)O)c1ncc2c(n1)-c1ccccc1SC2", "HCT-116 colon", "> 100 µM"],
  ["N#CC(N)(C(=O)CCC(=O)Nc1cccc(Cl)c1)c1ccc(Cl)cc1 (centres undefined)", "HCT-116 colon", "> 100 µM"],
  ["OC1(C(F)(F)F)OCCN=C1C(F)(F)F (centres undefined)", "HCT-116 colon", "> 100 µM"]
]}

###

Below, each of the compounds is paired with its reported TGI value.
System: MDA-N
method-notes: NCI tumour cell line growth inhibition, 48 h

{"columns": ["compound", "TGI"],
 "data": [
  ["COc1cc(C#CC(=O)OC/C=C/c2ccc3c(c2)OCO3)cc(OC)c1OC", "45 µM"],
  ["COc1cc(/C=C2\\C[C@H]3[C@@H]4CCc5cc(O)ccc5[C@H]4CC[C@]3(C)C2=O)cc(OC)c1OC", "62.3 µM"],
  ["O=c1cnn(C2OC(C(O)CO)C(O)C2O)c(=O)[nH]1 (stereo unspecified)", "> 100 µM"],
  ["CCc1cc2c(oc3cc4ccccc4cc32)c(=O)[nH]1", "> 10 µM"],
  ["CNC(C#N)c1ccc(OC)cc1 (stereo unspecified)", "> 100 µM"],
  ["CC(C)(C)[Si](C)(C)OCC1OC(n2ccc(N)nc2=O)C(O[Si](C)(C)C(C)(C)C)C1O[Si](C)(C)C(C)(C)C (stereo unspecified)", "13 µM"]
]}

###

System: CCRF-CEM leukemia
method-notes: NCI tumour cell line growth inhibition, 48 h
measured-attribute: TGI

{"columns": ["compound", "assay-system", "endpoint-result"],
 "data": [
  ["CCCCCCCCCC1(N=[N+]=[N-])C(=O)c2ccccc2N(C)C1=O (centres undefined)", "CCRF-CEM leukemia", "> 100 µM"],
  ["CC(CCC=O)CCOCc1ccccc1 (centres undefined)", "CCRF-CEM leukemia", "> 84.2 µM"],
  ["CN(C)N=Nc1ccc(NC=O)cc1", "CCRF-CEM leukemia", "> 100 µM"],
  ["CN(C)CCCNC(=O)c1cc2[nH]c3c(cnc4ccc([N+](=O)[O-])cc43)c(=O)c2n1C", "CCRF-CEM leukemia", "30.6 µM"],
  ["CCCCc1c(N(C)C)c(OC(C)=O)c(-c2cn(C)c3ccccc23)oc1=O", "CCRF-CEM leukemia", "> 100 µM"],
  ["CN(CC(=O)O)c1ncc2c(n1)-c1ccccc1SC2", "CCRF-CEM leukemia", "> 100 µM"],
  ["Cc1nn(-c2ccccc2)c2nc(N3CCOCC3)nnc12", "CCRF-CEM leukemia", "> 100 µM"],
  ["CC(=O)c1ccc(NCc2cc(O)ccc2O)cc1", "CCRF-CEM leukemia", "> 100 µM"],
  ["NC(=O)NC1C(c2ccccc2)=C1c1ccccc1", "CCRF-CEM leukemia", "> 100 µM"],
  ["O=C(Cc1ccc(/C=C/C(=O)c2ncc[nH]2)cc1)Nc1cc(F)c(F)c(F)c1", "CCRF-CEM leukemia", "13.9 µM"],
  ["COc1ccc(N2C(=O)C(=O)N(c3ccccc3[N+](=O)[O-])C2=S)cc1", "CCRF-CEM leukemia", "> 100 µM"],
  ["c1nc(OCC2CCCCC2)c2[nH]cnc2n1", "CCRF-CEM leukemia", "> 100 µM"],
  ["COC(=O)c1ccc(C(=O)NC(Cc2ccc(Oc3cc(CC(NC(=O)c4ccccc4C(=O)OC)C(=O)OC)ccc3OC)cc2)C(=O)OC)cc1 (centres undefined)", "CCRF-CEM leukemia", "> 100 µM"],
  ["N#Cc1nc2ccccc2nc1N1CCN(c2ccc([N+](=O)[O-])cc2)CC1", "CCRF-CEM leukemia", "> 100 µM"],
  ["CC(C)c1ccccc1NC(=O)CCc1n[nH]c(=S)o1", "CCRF-CEM leukemia", "> 100 µM"],
  ["O=C(NC(Cc1c[nH]c2ccccc12)C(=O)Nc1ccc(Br)cc1)OCc1ccccc1 (centres undefined)", "CCRF-CEM leukemia", "36 µM"],
  ["COc1cc(/C=C2\\C[C@H]3[C@@H]4CCc5cc(O)ccc5[C@H]4CC[C@]3(C)C2=O)cc(OC)c1OC", "CCRF-CEM leukemia", "27.4 µM"],
  ["O=C(Nc1nc2ccc(C(F)(F)F)cc2s1)c1cc(Cl)ccc1O", "CCRF-CEM leukemia", "96.5 µM"],
  ["CCN(CC)CCC(=O)/C=C/c1ccccc1", "CCRF-CEM leukemia", "> 47.2 µM"]
]}
